Values were extracted from patent US7598258B2.

- measured-target: mouse c-fms (Mus musculus)
- Construct: Macrophage-like cell line BAC-1.2F5 which expresses c-fms as a M-CSF receptor on cell membranes; endogenous in cells
- assay-details: Inhibition of c-fms autophosphorylation in macrophage-like cell line BAC-1.2F5 by M-CSF stimulation (ELISA)
- conditions: BAC-1.2F5 cells, human recombinant M-CSF 50 ng/ml, read-out: c-fms autophosphorylation 50% inhibitory concentration (IC50)
pIC50: −log10 of the molar value.
Please enter Y where pIC50 is greater than or equal to 8, and N where it is lower.

# molecule, label
data = [
    ("COc1cc2nccc(Oc3ccc(NC(=O)N[C@H](C)c4ccccc4OC)cc3)c2cc1OC [Example 52]", "Y"),
    ("COc1cc2nccc(Oc3ccc(NC(=O)NC(C)c4nc(C)c(C)s4)c(C)c3)c2cc1OC (centres unmarked) [Example 96]", "N"),
    ("COc1cc2nccc(Oc3ccc(NC(=O)N[C@H](C)c4cccc(Br)c4)c(C(F)(F)F)c3)c2cc1OC [Example 60]", "N"),
    ("COc1cc2nccc(Oc3ccc(NC(=O)N[C@@H](C)c4nccs4)cc3)c2cc1OC [Example 78]", "Y"),
    ("COc1cc2nccc(Oc3cc(C)c(NC(=O)NC(C)c4ccc(F)cc4)cc3C)c2cc1OC (centres unmarked) [Example 7]", "N"),
    ("COc1cc2nccc(Oc3ccc(NC(=O)N[C@H](C)c4cccc(Br)c4)c(Cl)c3)c2cc1OC [Example 55]", "N"),
]

###

- measured-target: mouse c-fms (Mus musculus)
- Construct: Macrophage-like cell line BAC-1.2F5 which expresses c-fms as a M-CSF receptor on cell membranes; endogenous in cells
- Sequence (P09581 20-977): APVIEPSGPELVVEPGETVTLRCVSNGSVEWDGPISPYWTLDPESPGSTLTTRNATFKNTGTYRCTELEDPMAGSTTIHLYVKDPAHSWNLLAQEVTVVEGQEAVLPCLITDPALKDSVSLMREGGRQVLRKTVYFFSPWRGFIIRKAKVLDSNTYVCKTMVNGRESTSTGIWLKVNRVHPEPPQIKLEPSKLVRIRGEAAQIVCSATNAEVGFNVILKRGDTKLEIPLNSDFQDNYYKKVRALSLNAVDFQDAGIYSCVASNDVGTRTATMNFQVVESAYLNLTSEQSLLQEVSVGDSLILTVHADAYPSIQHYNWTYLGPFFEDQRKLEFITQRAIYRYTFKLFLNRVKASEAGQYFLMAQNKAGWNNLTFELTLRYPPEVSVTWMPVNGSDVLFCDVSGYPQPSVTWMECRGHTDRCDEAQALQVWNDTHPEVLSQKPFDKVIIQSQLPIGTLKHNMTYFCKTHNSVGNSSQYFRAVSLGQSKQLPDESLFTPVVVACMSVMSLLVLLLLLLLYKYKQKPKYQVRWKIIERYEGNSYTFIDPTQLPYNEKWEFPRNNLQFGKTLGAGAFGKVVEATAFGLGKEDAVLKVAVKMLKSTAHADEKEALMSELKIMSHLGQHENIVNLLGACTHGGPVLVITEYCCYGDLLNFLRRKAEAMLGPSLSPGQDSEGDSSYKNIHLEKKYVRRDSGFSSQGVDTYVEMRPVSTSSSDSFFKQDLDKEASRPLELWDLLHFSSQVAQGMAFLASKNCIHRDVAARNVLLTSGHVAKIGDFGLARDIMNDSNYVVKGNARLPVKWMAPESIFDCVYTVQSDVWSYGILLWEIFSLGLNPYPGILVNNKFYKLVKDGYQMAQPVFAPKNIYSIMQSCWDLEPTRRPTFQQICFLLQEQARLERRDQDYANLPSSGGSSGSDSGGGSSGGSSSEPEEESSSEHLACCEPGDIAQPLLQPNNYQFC
- assay-details: Inhibition of c-fms autophosphorylation in macrophage-like cell line BAC-1.2F5 by M-CSF stimulation (ELISA)
- conditions: BAC-1.2F5 cells, human recombinant M-CSF 50 ng/ml, read-out: c-fms autophosphorylation 50% inhibitory concentration (IC50)

# compound, IC50
measured = [
    ("COc1cccc([C@@H](C)NC(=O)Nc2ccc(Oc3ccnc4cc(OC)c(OC)cc34)cc2)c1 [Example 50]", "7.2 nM"),
    ("COc1cc2nccc(Oc3ccc(NC(=O)NC(C)c4nc(C)c(C)s4)c(C(F)(F)F)c3)c2cc1OC (stereo not drawn) [Example 97]", "120 nM"),
    ("COc1cccc([C@H](C)NC(=O)Nc2ccc(Oc3ccnc4cc(OC)c(OC)cc34)cc2)c1 [Example 49]", "3.2 nM"),
]

###

- measured-target: mouse c-fms (Mus musculus, UniProt P09581)
- Construct: Macrophage-like cell line BAC-1.2F5 which expresses c-fms as a M-CSF receptor on cell membranes; endogenous in cells
- Sequence (P09581 20-977): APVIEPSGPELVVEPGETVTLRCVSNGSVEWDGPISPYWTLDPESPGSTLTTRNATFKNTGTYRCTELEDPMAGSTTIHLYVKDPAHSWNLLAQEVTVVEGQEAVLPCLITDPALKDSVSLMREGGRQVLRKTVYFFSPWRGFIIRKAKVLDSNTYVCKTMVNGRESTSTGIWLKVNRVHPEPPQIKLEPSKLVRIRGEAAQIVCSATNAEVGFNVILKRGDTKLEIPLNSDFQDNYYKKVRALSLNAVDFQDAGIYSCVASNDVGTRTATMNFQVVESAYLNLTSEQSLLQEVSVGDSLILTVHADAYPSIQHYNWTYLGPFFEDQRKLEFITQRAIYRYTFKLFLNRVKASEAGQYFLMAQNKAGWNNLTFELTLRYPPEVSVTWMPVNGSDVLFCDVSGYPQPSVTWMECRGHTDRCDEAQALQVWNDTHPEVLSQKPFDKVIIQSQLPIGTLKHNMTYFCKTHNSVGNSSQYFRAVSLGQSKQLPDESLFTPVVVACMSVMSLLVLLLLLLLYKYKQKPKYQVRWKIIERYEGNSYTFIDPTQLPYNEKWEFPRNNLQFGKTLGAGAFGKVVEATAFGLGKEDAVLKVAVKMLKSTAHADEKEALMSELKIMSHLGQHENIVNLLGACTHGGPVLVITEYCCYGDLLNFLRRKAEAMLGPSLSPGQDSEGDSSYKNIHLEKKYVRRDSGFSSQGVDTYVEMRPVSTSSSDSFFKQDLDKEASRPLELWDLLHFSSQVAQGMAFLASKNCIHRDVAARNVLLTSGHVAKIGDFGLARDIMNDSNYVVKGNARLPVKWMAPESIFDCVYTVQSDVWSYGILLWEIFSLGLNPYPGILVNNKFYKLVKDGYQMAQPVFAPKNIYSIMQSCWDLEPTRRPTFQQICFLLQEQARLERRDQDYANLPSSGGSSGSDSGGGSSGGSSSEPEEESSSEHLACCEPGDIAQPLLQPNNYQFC
- assay-details: Inhibition of c-fms autophosphorylation in macrophage-like cell line BAC-1.2F5 by M-CSF stimulation (ELISA)
- conditions: BAC-1.2F5 cells, human recombinant M-CSF 50 ng/ml, read-out: c-fms autophosphorylation 50% inhibitory concentration (IC50)
quantity: IC50

# compound, result
measured = [
    ("COc1cc2nccc(Oc3ccc(NC(=O)N[C@@H](C)c4ccc(F)cc4)cc3OC)c2cc1OC", "10.2 nM"),
    ("COc1cc(Oc2ccnc3cc(OC)c(OC)cc23)ccc1NC(=O)N[C@H](C)c1nccs1", "7.1 nM"),
    ("COc1cc2nccc(Oc3ccc(NC(=O)N[C@H](C)c4ccc(F)cc4)cc3F)c2cc1OC", "6.5 nM"),
    ("COc1cc2nccc(Oc3ccc(NC(=O)NC(C)c4ccc(F)cc4)c(C)c3)c2cc1OC (centres unmarked)", "6.1 nM"),
    ("COc1cc2nccc(Oc3ccc(NC(=O)NC(C)c4ncc(C)s4)cc3)c2cc1OC (centres unmarked)", "15.7 nM"),
    ("COc1cc2nccc(Oc3ccc(NC(=O)N[C@H](C)c4nccs4)cc3OC)c2cc1OC", "8.9 nM"),
    ("COc1cc2c(Oc3ccc(NC(=O)NC(C)c4ccc(F)c(F)c4)cc3F)ccnc2cc1OCCCN1CCOCC1 (centres unmarked)", "13.9 nM"),
    ("COc1cc2nccc(Oc3ccc(NC(=O)N[C@@H](C)c4ccc(F)cc4)c(C)c3)c2cc1OC", "13 nM"),
]
